Each recorded value in this set is attributed to patent US20200317817A1.

Each record here notes measured pEC50.
# tested system: T1, mouse PTH1R overexpressed on CHO cells (mouse, UniProt P41593 27-591)
# T1 construct: whole, on cells; also called CHO mouse PTH1R; CHO Mouse PTHR
# T1 sequence (looked up): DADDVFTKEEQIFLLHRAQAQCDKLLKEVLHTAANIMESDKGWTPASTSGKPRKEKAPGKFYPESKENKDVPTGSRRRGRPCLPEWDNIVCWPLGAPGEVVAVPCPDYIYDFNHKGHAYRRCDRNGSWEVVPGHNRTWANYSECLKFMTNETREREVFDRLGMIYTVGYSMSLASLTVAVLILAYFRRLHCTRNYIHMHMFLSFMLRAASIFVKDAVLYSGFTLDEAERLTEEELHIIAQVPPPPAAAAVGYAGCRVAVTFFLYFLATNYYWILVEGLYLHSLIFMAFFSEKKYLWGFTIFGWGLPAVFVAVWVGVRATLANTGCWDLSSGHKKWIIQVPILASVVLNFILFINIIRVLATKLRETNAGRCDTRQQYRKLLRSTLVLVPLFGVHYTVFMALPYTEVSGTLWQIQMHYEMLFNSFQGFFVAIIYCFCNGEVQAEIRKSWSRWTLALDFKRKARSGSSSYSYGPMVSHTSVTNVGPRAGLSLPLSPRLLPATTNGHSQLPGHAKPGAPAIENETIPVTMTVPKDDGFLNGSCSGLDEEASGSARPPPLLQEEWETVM
# measurement description: flow cytometry on CHO cells, 24 hr at 4 C
Note on pEC50: it is the negative log10 of concentration, concentration in mol/L.

For orientation, consider the following solved cases.
| binder | measured result |
| --- | --- |
| XPA.85.341 (antibody, V domains shown, Light-chain-shuffled variant of XPA.85.017) VH: EVQLVETGGGVVRPGGSLRLSCAASGFTFSSSAMSWVRQTPGKELQWVSAITPGGEGTYYADVVKGRFTISRDNSKDTLYLQMDSLRAEDTAVYYCARDLYGSYGDAFDIWGQGTLVTVSS VL: SYELTQPSSVSVSPGQTASITCSGDKLGEKYASWYQQKPGQSPVLVMFEDTKRPSGIPERFSGSNSGNTATLTISGTQAEDEADYYCQAWDSSWVFGGGTQLTVL | 9.47 |
| XPA.85.338 (antibody, V domains shown, Light-chain-shuffled variant of XPA.85.017) VH: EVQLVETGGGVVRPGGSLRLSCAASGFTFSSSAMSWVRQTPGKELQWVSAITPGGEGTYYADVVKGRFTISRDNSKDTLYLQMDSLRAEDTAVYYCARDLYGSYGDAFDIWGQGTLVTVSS VL: SYELTQPPSVSVAPGQTATITCSGDKLGDKYASWYQQKPGQSPVLVMFENRDRPSGIPDRFSGSNSGNTATLTISGTQAMDEADYYCQAWDSSTAWVFGGGTQLTVL | 9.17 |

# input Returns the measured pEC50 for the input binder. Input: XPA.85.336 (antibody, V domains shown, Light-chain-shuffled variant of XPA.85.017) VH: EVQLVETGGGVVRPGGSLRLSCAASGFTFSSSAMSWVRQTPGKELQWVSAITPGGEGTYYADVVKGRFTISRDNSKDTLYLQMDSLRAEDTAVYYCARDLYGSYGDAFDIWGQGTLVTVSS VL: QSVLTQPPSVSAAPGQKVTISCSGTGSNIGSNYVAWYQQLPGTAPKLLIYDDNKRPSGTPDRFSGSKSGTSATLVIAGLQTGDEADYYCGTWDNTLNVGGVFGGGTQLTVL
# output 7.83
